- target_or_test_system: BSA (UniProt P02769)
- test: single-point ELISA
measured_property: ELISA (A450)
Please respond with the number in A450 and leave the unit unwritten.

Query 1.1.35-1 (antibody, human IgG1, kappa, V domains shown) VH: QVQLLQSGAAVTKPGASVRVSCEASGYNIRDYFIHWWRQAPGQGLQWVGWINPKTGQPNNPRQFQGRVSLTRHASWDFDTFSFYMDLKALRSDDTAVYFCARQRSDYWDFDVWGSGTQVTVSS VL: DIQMTQSPSSLSASVGDRVTITCQANGYLNWYQQKPGKAPKLLIYDGSNLETGVPSRFSGSRWGQEYTLTISSLQPEDIATYFCQVYEFVGPGTNLDIKR yields ELISA (A450) of 0.08
